Tested on: HCC-2998 colon
Experiment: NCI tumour cell line growth inhibition, 48 h
Here the recorded TGI is given for each entry.
READOUT: TGI

{"COMPOUND": "Cc1ccc(NC2=CC(=O)C(=O)c3ccccc32)c(C)c1", "REPORTED RESULT": "7.91 µM"}
{"COMPOUND": "Nc1nc(-c2ccccc2)cc(-c2cc(Cl)ccc2O)n1", "REPORTED RESULT": "> 100 µM"}
{"COMPOUND": "Cc1cc(OC(=O)Nc2ccc(Cl)cc2)ccc1C(=S)Nc1ccccc1", "REPORTED RESULT": "> 100 µM"}
{"COMPOUND": "CC(=O)OC1COC(Oc2c(C)c3c4c(c2O)[C@@H](C)CC[C@@H]4[C@@H](C)C[C@H]3C=C(C)C)C(O)C1O (stereo partly specified)", "REPORTED RESULT": "31.3 µM"}
{"COMPOUND": "CO[C@]12C[C@@H](CNC(=O)c3cc(Br)c[nH]3)O[C@H]1NC(=O)N2", "REPORTED RESULT": "> 100 µM"}
{"COMPOUND": "Cc1c(C)c2ccc(OC(C)C(=O)O)cc2oc1=O (stereo unspecified)", "REPORTED RESULT": "> 100 µM"}
{"COMPOUND": "CCOC(=O)c1cc2cc(OCc3ccccc3)ccc2[nH]1", "REPORTED RESULT": "> 100 µM"}
{"COMPOUND": "Cc1cn2c(/C=C3/C(=O)Nc4ccc(C(=O)O)cc43)c(C)nc2s1", "REPORTED RESULT": "> 100 µM"}
{"COMPOUND": "C=C(C)[C@@H]1CC[C@]2(C(=O)n3ccnc3)CC[C@]3(C)[C@H](CC[C@@H]4[C@@]5(C)CCCNC(C)(C)[C@@H]5CC[C@]43C)[C@@H]12", "REPORTED RESULT": "3.2 µM"}
{"COMPOUND": "CC1(C)N=C(N)N=C(N)N1c1ccc(OCCCCNC(=O)Nc2cccc(S(=O)(=O)F)c2)c(Cl)c1", "REPORTED RESULT": "> 100 µM"}
{"COMPOUND": "CC(C)c1cc(C(C)C)c(Cl)c(Cl)c1O (tested in a mixture with another compound)", "REPORTED RESULT": "64.5 µM"}

---

Tested on: CAKI-1 renal
Assay: NCI tumour cell line growth inhibition, 48 h
Here the recorded GI50 is given for each entry.

{"MOLECULE": "CCN(CC)CCS(=O)(=O)CCNc1ccnc2cc(Cl)ccc12", "TARGET UNDER TEST": "CAKI-1 renal", "GI50": "782 nM"}
{"MOLECULE": "OC(c1cc(-c2ccc(Cl)cc2)nc2c(Cl)cccc12)C1CCCCN1 (configuration not stated)", "TARGET UNDER TEST": "CAKI-1 renal", "GI50": "1160 nM"}
{"MOLECULE": "CC1(C)OC2OC(COC(=O)C(c3ccccc3)c3ccccc3)C3OC(C)(C)OC3C2O1 (configuration not stated)", "TARGET UNDER TEST": "CAKI-1 renal", "GI50": "> 100000 nM"}
{"MOLECULE": "CCN(CC)Cc1cc(Nc2cc(C(F)(F)F)c(C#N)c3nc4ccccc4n23)ccc1O", "TARGET UNDER TEST": "CAKI-1 renal", "GI50": "1770 nM"}
{"MOLECULE": "CCOc1cc(/C=C/C(=O)CC(=O)/C=C/c2ccc(OC(=O)CNCCN(CC)CC)c(OCC)c2)ccc1OC(=O)CNCCN(CC)CC", "TARGET UNDER TEST": "CAKI-1 renal", "GI50": "2120 nM"}
{"MOLECULE": "O=C1c2ccccc2-c2c1c1ccc([N+](=O)[O-])cc1c(=O)n2CCCCl", "TARGET UNDER TEST": "CAKI-1 renal", "GI50": "2450 nM"}
{"MOLECULE": "CC(=O)OC1COC(Oc2c(C)c3c4c(c2O)[C@@H](C)CC[C@@H]4[C@@H](C)C[C@H]3C=C(C)C)C(O)C1O (some centres not stated)", "TARGET UNDER TEST": "CAKI-1 renal", "GI50": "16000 nM"}

---

System: KM12 colon
Assay: NCI tumour cell line growth inhibition, 48 h; in the data active = GI50 below about 0.43 µM; inactive = the rest
Outcomes: true (1) (active), false (0) (inactive)

{"COMPOUND": "CCN(CC)C(=S)SSCCO", "DISCRETE LABEL": "false (0)"}
{"COMPOUND": "CC/C(=C(/c1ccc(/C=C/C(=O)O)cc1)c1ccc2[nH]ncc2c1)c1ccc(F)cc1Cl", "DISCRETE LABEL": "false (0)"}
{"COMPOUND": "Nc1ccn([C@@H]2S[C@H](CO)[C@@H](O)[C@@H]2F)c(=O)n1", "DISCRETE LABEL": "false (0)"}
{"COMPOUND": "COc1cc(OC)c(/C=C/C(=O)c2c(N)cc(OC)cc2OC)c(OC)c1", "DISCRETE LABEL": "true (1)"}
{"COMPOUND": "O=C(Nc1cccc(-n2cc(-c3ccncc3)c(-c3ccc(O)c(Cl)c3)n2)c1)Nc1ccc(Cl)c(Cl)c1", "DISCRETE LABEL": "false (0)"}
{"COMPOUND": "O=C(/C=C/c1cccc(Oc2ccc(Cl)cc2)c1)c1ccccc1", "DISCRETE LABEL": "false (0)"}
{"COMPOUND": "C=C(C)[C@@H]1CC[C@]2(C(=O)n3ccnc3)CC[C@]3(C)[C@H](CC[C@@H]4[C@@]5(C)CCCNC(C)(C)[C@@H]5CC[C@]43C)[C@@H]12", "DISCRETE LABEL": "false (0)"}
{"COMPOUND": "O=C(Nc1nc2c(s1)CCc1c-2c(Br)n(Cc2ccccc2)c1Br)c1ccccc1", "DISCRETE LABEL": "false (0)"}
{"COMPOUND": "CCc1c(C#N)c(SC(C(N)=O)c2ccccc2)nc(N2CCC(N)CC2)c1C#N (stereo unspecified)", "DISCRETE LABEL": "false (0)"}
{"COMPOUND": "CCOC(=O)c1cc2cc(OCc3ccccc3)ccc2[nH]1", "DISCRETE LABEL": "false (0)"}
{"COMPOUND": "Oc1ccc(-c2[nH]c3ccccc3c2-c2nc3ccccc3o2)cc1", "DISCRETE LABEL": "false (0)"}
{"COMPOUND": "COC(=O)c1ccc2c(c1)C(=O)c1c-2n(CCCCl)c(=O)c2cc(OC)c(OC)cc12", "DISCRETE LABEL": "false (0)"}
{"COMPOUND": "O=S(=O)(NCCCNc1nccc(-c2c(-c3cccc(F)c3)nc3occn23)n1)c1cccc2ccccc12", "DISCRETE LABEL": "false (0)"}
{"COMPOUND": "CCN(CCNc1ccc(C)c2sc3cc(Cl)ccc3c(=O)c12)CC(C)(C)O", "DISCRETE LABEL": "false (0)"}
{"COMPOUND": "CCN(CC)Cc1cc(Nc2cc(C(F)(F)F)c(C#N)c3nc4ccccc4n23)ccc1O", "DISCRETE LABEL": "false (0)"}
{"COMPOUND": "Cc1ccc(O)cc1Nc1ccnc2cc(-c3ccccn3)ccc12", "DISCRETE LABEL": "false (0)"}

---

Test system: UACC-62 melanoma
Experiment: NCI tumour cell line growth inhibition, 48 h
Here the recorded TGI is given for each entry.

{"COMPOUND": "N=C(N)c1ccc(N=Nc2c(O)ccc3cc(O)ccc23)cc1", "TGI": "> 100 µM"}
{"COMPOUND": "CSc1nc(C)c(CCOC(C)=O)c(N=P(c2ccccc2)(c2ccccc2)c2ccccc2)n1", "TGI": "> 10 µM"}
{"COMPOUND": "CC1(C)OC2OC(COC(=O)C(c3ccccc3)c3ccccc3)C3OC(C)(C)OC3C2O1 (stereo unspecified)", "TGI": "> 100 µM"}
{"COMPOUND": "C1=C(c2ccccc2)C(OC2Oc3ccccc3C=C2c2ccccc2)Oc2ccccc21 (stereo unspecified)", "TGI": "> 100 µM"}
{"COMPOUND": "Clc1cccc2[nH]ncc12", "TGI": "> 100 µM"}
{"COMPOUND": "Cc1c(C)c2ccc(OC(C)C(=O)O)cc2oc1=O (stereo unspecified)", "TGI": "> 100 µM"}

---

Test system: SN12C renal
Assay: NCI tumour cell line growth inhibition, 48 h; in the data active = GI50 below about 0.43 µM; inactive = the rest
Outcomes: TRUE (active), FALSE (inactive)

{"COMPOUND": "Cc1ccc(NC2=CC(=O)C(=O)c3ccccc32)c(C)c1", "TARGET UNDER TEST": "SN12C renal", "DISCRETE LABEL": "FALSE"}
{"COMPOUND": "COC(=O)C1=Nc2ccc(F)cc2/C1=C/c1sc(=S)[nH]c1O", "TARGET UNDER TEST": "SN12C renal", "DISCRETE LABEL": "TRUE"}
{"COMPOUND": "CC/C(=C(/c1ccc(/C=C/C(=O)O)cc1)c1ccc2[nH]ncc2c1)c1ccc(F)cc1Cl", "TARGET UNDER TEST": "SN12C renal", "DISCRETE LABEL": "FALSE"}
{"COMPOUND": "Nc1c(C(=O)Nc2ccccn2)sc2nc3c(cc12)CCCCCC3", "TARGET UNDER TEST": "SN12C renal", "DISCRETE LABEL": "FALSE"}
{"COMPOUND": "CC1=NN(c2nc(N)nc(/C=C\\c3ccccc3)n2)C(C)(C)C1", "TARGET UNDER TEST": "SN12C renal", "DISCRETE LABEL": "FALSE"}
{"COMPOUND": "N#Cc1cccc(C2C3=C(COC3=O)N(CCO)c3cc4c(cc32)CCC4)c1 (stereo not drawn)", "TARGET UNDER TEST": "SN12C renal", "DISCRETE LABEL": "TRUE"}
{"COMPOUND": "CN1CCOCCOCCOc2ccccc2NC(=O)c2nc(cnc2N)-c2ccc(cc2)S1(=O)=O", "TARGET UNDER TEST": "SN12C renal", "DISCRETE LABEL": "FALSE"}
{"COMPOUND": "O=C(Nc1cccc(-n2cc(-c3ccncc3)c(-c3ccc(O)c(Cl)c3)n2)c1)Nc1ccc(Cl)c(Cl)c1", "TARGET UNDER TEST": "SN12C renal", "DISCRETE LABEL": "FALSE"}
